B1: Caulobacter ParB omega fusion; a variant is named by its letters at X, in order, B8GW30 (parent)
chain: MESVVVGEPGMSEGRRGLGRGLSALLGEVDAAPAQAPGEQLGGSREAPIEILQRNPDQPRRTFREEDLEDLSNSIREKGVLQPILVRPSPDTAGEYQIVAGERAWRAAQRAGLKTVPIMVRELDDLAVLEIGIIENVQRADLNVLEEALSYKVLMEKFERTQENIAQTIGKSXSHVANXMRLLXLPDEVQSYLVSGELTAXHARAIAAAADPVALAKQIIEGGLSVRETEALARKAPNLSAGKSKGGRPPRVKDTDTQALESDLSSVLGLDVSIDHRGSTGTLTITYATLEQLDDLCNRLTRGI

# Variants of: B1
# Method Summary: one-hybrid fitness for binding NBS DNA (the Noc-binding site; scaled: cognate 1, non-cognate 0); higher = stronger binding
# Condition Summary: with NBS DNA site
Whole data set: some 81,000 sequences, median “one-hybrid fitness for binding NBS DNA” near -0.1, cut for the highest 2% near 0.36. Only a selection was taken, and the highest values are over-represented in it overall.
Parameter: one-hybrid fitness for binding NBS DNA

For the variant KSNT , give its reported one-hybrid fitness for binding NBS DNA.
≤ 0.2

For the variant PAIL , give its reported one-hybrid fitness for binding NBS DNA.
≤ 0.2

For the variant WIPG , give its reported one-hybrid fitness for binding NBS DNA.
≤ 0.2

For the variant QQCK , give its reported one-hybrid fitness for binding NBS DNA.
≤ 0.2

For the variant DWIC , give its reported one-hybrid fitness for binding NBS DNA.
≤ 0.2

For the variant LTIS , give its reported one-hybrid fitness for binding NBS DNA.
≤ 0.2

For the variant PPWR , give its reported one-hybrid fitness for binding NBS DNA.
≤ 0.2

For the variant RFNR , give its reported one-hybrid fitness for binding NBS DNA.
0.325

For the variant TATG , give its reported one-hybrid fitness for binding NBS DNA.
≤ 0.2

For the variant QMVP , give its reported one-hybrid fitness for binding NBS DNA.
≤ 0.2

For the variant QQGC , give its reported one-hybrid fitness for binding NBS DNA.
≤ 0.2

For the variant QPRE , give its reported one-hybrid fitness for binding NBS DNA.
≤ 0.2

For the variant QRVE , give its reported one-hybrid fitness for binding NBS DNA.
≤ 0.2

For the variant QRYE , give its reported one-hybrid fitness for binding NBS DNA.
0.207

For the variant QRKE , give its reported one-hybrid fitness for binding NBS DNA.
0.368

For the variant QTRE , give its reported one-hybrid fitness for binding NBS DNA.
0.405

For the variant RSNH , give its reported one-hybrid fitness for binding NBS DNA.
0.223

For the variant RWDR , give its reported one-hybrid fitness for binding NBS DNA.
≤ 0.2

For the variant QMVR , give its reported one-hybrid fitness for binding NBS DNA.
0.424

For the variant QMKL , give its reported one-hybrid fitness for binding NBS DNA.
0.262

For the variant RSDR , give its reported one-hybrid fitness for binding NBS DNA.
≤ 0.2

For the variant RIDR , give its reported one-hybrid fitness for binding NBS DNA.
≤ 0.2
